Source listed as paper PMC6393308.

Biological target: T1, HpSoj K199E (Helicobacter pylori 26695, UniProt O25759 1-264, K199E)
T1 sequence: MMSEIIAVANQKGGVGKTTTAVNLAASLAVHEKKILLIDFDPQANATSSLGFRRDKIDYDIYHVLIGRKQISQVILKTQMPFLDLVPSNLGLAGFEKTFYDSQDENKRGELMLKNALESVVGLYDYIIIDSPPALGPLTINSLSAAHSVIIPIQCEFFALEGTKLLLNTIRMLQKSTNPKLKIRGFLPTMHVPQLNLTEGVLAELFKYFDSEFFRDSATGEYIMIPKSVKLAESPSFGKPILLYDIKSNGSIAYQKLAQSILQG
Assay: fluorescence polarization
Parameter: Kd (nM)

>  <Binder>
parS24 Cy3 (dsDNA) DNA 1: AGGGTGTTCCACGTGAAACAGGGA DNA 2: TCCCTGTTTCACGTGGAACACCCT

>  <Experimental Value>
215

$$$$
